molecular target: D-VEGF, synthetic D-protein form of VEGF-A(8-109) (Homo sapiens (Human)) (UniProt P15692); test: SPR (ProteOn XPR36), D-VEGF immobilized
Sequence (P15692 214-315 limits assumed, form in doubt): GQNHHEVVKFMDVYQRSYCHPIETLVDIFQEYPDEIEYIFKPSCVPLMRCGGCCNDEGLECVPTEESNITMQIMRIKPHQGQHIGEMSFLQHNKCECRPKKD
measurement-label: Kd (nM)

- binder: "E01-D39F (designed binder) MKIEEHHHHHHHHHHGGSTYKLILNGKTLKGETTTEAVDVYDAFDVFFVYAASNFSFFDDWTYDDATKTFTVTEGGSDK"
  measurement-label: "Kd"
  reported: 3.48

A: E01-D39F/S35G (designed binder) MKIEEHHHHHHHHHHGGSTYKLILNGKTLKGETTTEAVDVYDAFDVFFVYAAGNFSFFDDWTYDDATKTFTVTEGGSDK
B: E01-D39F/S38G (designed binder) MKIEEHHHHHHHHHHGGSTYKLILNGKTLKGETTTEAVDVYDAFDVFFVYAASNFGFFDDWTYDDATKTFTVTEGGSDK
Problem: Short answer wanted: higher Kd, A or B ? # reply format: chosen label
Result: A
(A: 5.4 nM, B: 2.83 nM)

Ref: patent US20120178682A1
